target: BCL-XL (Homo sapiens (Human), UniProt Q07817); test: Protein-protein interaction assay BCL-XL/Bad BH3 peptide (BCL-XL assay, TR-FRET); type: binding; conditions: His-BCL-XL / Bad BH3 peptide, median
Sequence (Q07817 other isoform, or with tags, fused parts or gaps): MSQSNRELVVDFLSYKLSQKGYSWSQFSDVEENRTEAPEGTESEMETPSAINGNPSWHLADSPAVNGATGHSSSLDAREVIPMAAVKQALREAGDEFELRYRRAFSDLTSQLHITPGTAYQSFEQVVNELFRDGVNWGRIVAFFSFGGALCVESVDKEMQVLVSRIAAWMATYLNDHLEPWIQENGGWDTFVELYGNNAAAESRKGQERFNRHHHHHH
endpoint: IC50 (µM)

compound="CCc1c2c(nn1C)C(CCC1CCOCC1)N(C)S(=O)(=O)CCCn1c(C(=O)O)c(CCCOc3cccc4cc(F)ccc34)c3ccc(Cl)c-2c31 (single isomer, unassigned; enantiomer 3) [Example 63]" endpoint=IC50 readout_number=19
compound="Cc1c2c(nn1C)CN(C)S(=O)(=O)CCCn1c(C(=O)O)c(CCCOc3cccc4ccccc34)c3ccc(Cl)c-2c31 (single isomer, unassigned; enantiomer 2) [Example 6]" endpoint=IC50 readout_number=18

---

Biological target: MCL-1 (Homo sapiens (Human), UniProt Q07820, K194A/K197A/R201A)
Sequence (Q07820 whole entry K194A/K197A/R201A, looked up): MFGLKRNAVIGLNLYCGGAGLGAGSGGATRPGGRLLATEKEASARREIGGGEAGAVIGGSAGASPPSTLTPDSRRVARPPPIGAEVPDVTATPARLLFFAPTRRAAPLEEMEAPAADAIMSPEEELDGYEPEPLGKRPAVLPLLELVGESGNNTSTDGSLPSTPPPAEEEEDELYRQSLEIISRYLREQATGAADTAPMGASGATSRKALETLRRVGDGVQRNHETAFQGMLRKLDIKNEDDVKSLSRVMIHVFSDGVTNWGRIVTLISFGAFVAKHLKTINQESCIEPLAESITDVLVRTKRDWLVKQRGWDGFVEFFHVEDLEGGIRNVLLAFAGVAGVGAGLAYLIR
Experiment: Protein-protein interaction assay MCL-1/Noxa BH3 peptide (MCL-1 assay, TR-FRET)
Format: binding
Settings: MBP-MCL-1 / Noxa BH3 peptide, median
Experimental: Protein-Protein Interaction Assay: MCL-1/Noxa BH3 Peptide (MCL-1 Assay) The dose-dependent inhibition by the compounds described in this invention of the interaction between MCL-1 and the BH3 domain of Noxa (both human) was determined using a steady state binding competition assay with time-resolved fluorescence energy transfer (TR-FRET) readout. […]
endpoint: IC50 (nM)

Guide cases for IC50, answers given:
molecule=CCc1c2c(nn1C)CN(C)S(=O)(=O)CCCn1c(C(=O)O)c(CCCOc3cccc4c3CCCC4)c3ccc(Cl)c-2c31 readout_number=3.3
molecule=Cc1c2c(nn1C)CN(C1CC1)S(=O)(=O)CCCn1c(C(=O)O)c(CCCOc3cccc4ccccc34)c3ccc(Cl)c-2c31 readout_number=2.1

A: CCc1c2c(nn1C)CN(CCCN1CCCC1=O)S(=O)(=O)CCCn1c(C(=O)O)c(CCCOc3cccc4ccccc34)c3cccc-2c31 (racemic)
B: CCc1c2c(nn1C)CN(C)S(=O)(=O)CCCn1c(C(=O)O)c(CCCOc3cccc4c3CCCC4)c3ccc(F)c-2c31 (racemic)
C: CCc1c2c(nn1C)CN(CC)S(=O)(=O)CCCn1c(C(=O)O)c(CCCOc3cccc4cc(F)ccc34)c3ccc(Cl)c-2c31 (racemic) [Example 56]
Query :: Hi! Can you put these in order of IC50, lowest number first? Your answer should be the labels, listed in the requested order.
Result :: C, B, A
(C: 2.1 nM, B: 3.2 nM, A: 6.3 nM)

---

system: SUDHL10; assay: Antiproliferation assay (Assay 7), SUDHL10; assay type: cell-based; settings: Homo sapiens, SU-DHL10, 72 h, CellTiter-Glo, median, read-out: Antiproli SUDHL10 [M] (median) IC50
endpoint: IC50 (M)
Express it in M; write the number only.

Query :: Any idea what IC50 was measured for Cc1c2c(nn1C)CN(C)S(=O)(=O)CCCn1c(C(=O)O)c(CCCOc3cccc4ccccc34)c3ccc(Cl)c-2c31 (racemic) [Example 4] ?
Result :: 5.6e-07

---

# IC50 values compiled below
tested on: SUDHL10; experiment: Induction of cytotoxicity (Assay 6), SUDHL10; settings: read-out: Cytotox SUDHL10 [M] (median) IC50, CellTiter-Glo, 5 hours, SUDHL10
I only need the number, in M, no unit after it.

The examples below pair each entry with its known result.
compound="CCc1c2c(nn1C)CN(C1CC1)S(=O)(=O)CCCn1c(C(=O)O)c(CCCOc3cccc4cc(F)ccc34)c3ccc(Cl)c-2c31 (single isomer, unassigned; enantiomer 1) [Example 54]" endpoint=IC50 readout_number=6.5e-07
compound="Cc1c2c(nn1C)CN(C)S(=O)(=O)CCCn1c(C(=O)O)c(CCCOc3cccc4cc(F)ccc34)c3ccc(F)c-2c31 (single isomer, unassigned; enantiomer 1) [Example 38]" endpoint=IC50 readout_number=2.1e-05
compound="CCc1c2c(nn1C)C(N1CCOCC1)CCN(C)S(=O)(=O)CCCn1c(C(=O)O)c(CCCOc3cccc4cc(F)ccc34)c3ccc(Cl)c-2c31 (single isomer, unassigned; enantiomer 1) [Example 70]" endpoint=IC50 readout_number=4.7e-06
compound="Cc1c2c(nn1C)C(CCN1CCOCC1)N(C)S(=O)(=O)CCCn1c(C(=O)O)c(CCCOc3cccc4cc(F)ccc34)c3ccc(Cl)c-2c31 (racemic) [Example 65]" endpoint=IC50 readout_number=1e-07

Query :: // lookup IC50 for CCc1c2c(nn1C)CN(C1CC1)S(=O)(=O)CCCn1c(C(=O)O)c(CCCOc3cccc4cc(F)ccc34)c3ccc(Cl)c-2c31 (single isomer, unassigned; enantiomer 2) [Example 55]
Result :: 1.3e-05

---

Property: IC50; scope: individual molecules
molecular target: BCL-2 (Homo sapiens (Human), UniProt P10415); test: Protein-protein interaction assay BCL-2/Bad BH3 peptide (BCL-2 assay, TR-FRET); assay type: binding; settings: His-BCL-2 / Bad BH3 peptide, median
Sequence (P10415 other isoform, or with tags, fused parts or gaps): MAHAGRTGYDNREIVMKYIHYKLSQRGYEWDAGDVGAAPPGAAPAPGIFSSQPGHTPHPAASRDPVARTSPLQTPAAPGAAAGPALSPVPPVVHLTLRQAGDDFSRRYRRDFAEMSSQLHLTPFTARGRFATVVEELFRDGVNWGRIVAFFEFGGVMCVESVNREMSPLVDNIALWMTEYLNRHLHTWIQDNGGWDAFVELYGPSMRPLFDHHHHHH

These solved cases illustrate the format of a correct answer.
molecule="Cc1c2c(nn1C)CN(C)S(=O)(=O)CCCn1c(C(=O)O)c(CCCOc3cccc4c3CCC4)c3ccc(F)c-2c31 (racemic) [Example 27]" endpoint=IC50 result="> 20 µM"
molecule="CCc1c2c(nn1C)CN(C)S(=O)(=O)CCCn1c(C(=O)O)c(CCCOc3cccc4ccccc34)c3ccc(Cl)c-2c31 [Example 20]" endpoint=IC50 result="> 20 µM"
molecule="CCc1c2c(nn1C)CN(CC)S(=O)(=O)CCCn1c(C(=O)O)c(CCCOc3cccc4cc(F)ccc34)c3ccc(Cl)c-2c31 (single isomer, unassigned; enantiomer 1) [Example 57]" endpoint=IC50 result="12 µM"
molecule="Cc1c2c(nn1C)C(CCN1CCOCC1)N(C)S(=O)(=O)CCCn1c(C(=O)O)c(CCCOc3cccc4ccccc34)c3cccc-2c31 (racemic) [Example 44]" endpoint=IC50 result="> 20 µM"
molecule="CCc1c2c(nn1C)CN(C)S(=O)(=O)CCCn1c(C(=O)O)c(CCCOc3cccc4c3CCCC4)c3ccc(F)c-2c31 (racemic) [Example 34]" endpoint=IC50 result="> 20 µM"
molecule="CCc1c2c(nn1C)CN(C)S(=O)(=O)CCCn1c(C(=O)O)c(CCCOc3cccc4c3CCCC4)c3ccc(Cl)c-2c31 [Example 23]" endpoint=IC50 result="15 µM"

Query :: Find IC50 (BCL-2 (Homo sapiens (Human), UniProt P10415)) for the entry CCc1c2c(nn1C)CN(C)S(=O)(=O)CCCn1c(C(=O)O)c(CCCOc3cccc4cc(F)ccc34)c3ccc(F)c-2c31 (racemic) [Example 7]
Result :: 18 µM

Query :: Find the measured IC50: item Cc1c2c(nn1C)CN(C)S(=O)(=O)CCCn1c(C(=O)O)c(CCCOc3ccc(F)c4ccccc34)c3ccc(F)c-2c31 [Example 30] , target or system BCL-2 (Homo sapiens (Human), UniProt P10415).
Result :: > 20 µM

---

molecular target: MCL-1 (Homo sapiens (Human), UniProt Q07820, K194A/K197A/R201A); test: Protein-compound interaction assay (SPR assay, Assay 8); format: binding; settings: immobilized MBP-MCL-1, 25° C., geometric mean, read-out: koff
endpoint: koff (s⁻¹)

molecule="Cc1c2c(nn1C)CN(C)S(=O)(=O)CCCn1c(C(=O)O)c(CCCOc3cccc4ccccc34)c3ccc(Cl)c-2c31 (single isomer, unassigned; enantiomer 1)" target_desc="MCL-1 (Homo sapiens (Human), UniProt Q07820, K194A/K197A/R201A)" readout_number=0.0079
molecule="Cc1c2c(nn1C)CN(C1CC1)S(=O)(=O)CCCn1c(C(=O)O)c(CCCOc3cccc4cc(F)ccc34)c3ccc(Cl)c-2c31 (single isomer, unassigned; enantiomer 1)" target_desc="MCL-1 (Homo sapiens (Human), UniProt Q07820, K194A/K197A/R201A)" readout_number=0.016

I: Cc1c2c(nn1C)CN(C)S(=O)(=O)CCCn1c(C(=O)O)c(CCCOc3cccc4cc(F)ccc34)c3ccc(F)c-2c31 (single isomer, unassigned; enantiomer 2)
II: CCc1c2c(nn1C)CN(C)S(=O)(=O)CCCn1c(C(=O)O)c(CCCOc3cccc4cc(F)ccc34)c3ccc(F)c-2c31 (single isomer, unassigned; enantiomer 1)
III: CCc1c2c(nn1C)CN(C)S(=O)(=O)CCCn1c(C(=O)O)c(CCCOc3cccc4cc(F)ccc34)c3ccc(Cl)c-2c31 (single isomer, unassigned; enantiomer 1)
IV: CCc1c2c(nn1C)C(CCC1CCOCC1)N(C)S(=O)(=O)CCCn1c(C(=O)O)c(CCCOc3cccc4cc(F)ccc34)c3ccc(Cl)c-2c31 (single isomer, unassigned; enantiomer 1)
Query :: Please put the entries in order of rising koff. Labels, ranked as asked.
Result :: IV, III, II, I

---

test system: SUDHL5; experiment: Induction of caspase-3/7 activity (Assay 4), SUDHL5; type: cell-based; conditions: caspase-3/7 induction, 3 hours, median
endpoint: EC50 (nM)

Look over these answered cases.
compound="Cc1c2c(nn1C)C(CCN1CCOCC1)N(C)S(=O)(=O)CCCn1c(C(=O)O)c(CCCOc3cccc4cc(F)ccc34)c3ccc(Cl)c-2c31 (single isomer, unassigned; enantiomer 1) [Example 66]" endpoint=EC50 readout_number=3500
compound="CCc1c2c(nn1C)C(CCC1CCOCC1)N(C)S(=O)(=O)CCCn1c(C(=O)O)c(CCCOc3cccc4cc(F)ccc34)c3ccc(Cl)c-2c31 (single isomer, unassigned; enantiomer 4) [Example 64]" endpoint=EC50 readout_number=1200
compound="CCc1c2c(nn1C)C(CCC1CCOCC1)N(C)S(=O)(=O)CCCn1c(C(=O)O)c(CCCOc3cccc4cc(F)ccc34)c3ccc(Cl)c-2c31 (racemic) [Example 59]" endpoint=EC50 readout_number=37

a: Cc1c2c(nn1C)CN(C)S(=O)(=O)CCCn1c(C(=O)O)c(CCCOc3cccc4ccccc34)c3ccc(Cl)c-2c31 (racemic) [Example 4]
b: Cc1c2c(nn1C)CN(C)S(=O)(=O)CCCn1c(C(=O)O)c(CCCOc3cccc4cc(F)ccc34)c3ccc(F)c-2c31 (single isomer, unassigned; enantiomer 2) [Example 39]
Query :: Name the one with the greater EC50 value, either a or b as given. // respond with label for picked entry
Result :: a
(a: 630 nM, b: 350 nM)
